Assignment: determine reported Efficacy against Eimeria tenella for the given molecules.
# Test system: Eimeria tenella
# Assay Notes: Cage experiment on coccidiosis/chicks, E. tenella readout; further: key: 2=full action; 1=slight action; 0=inactive; D=death
# Assay type: in vivo
# Assay Context: Table 4, dose 10 ppm; third symbol of cell
Just the number.

GET /values?readout=Efficacy against Eimeria tenella&item= COC(=O)N(C)Cn1c(C(F)(F)F)nc2c(Cl)cc3c(c21)OC(F)(F)C(F)(F)O3
2

Another molecule to look at: CCN(Cn1c(C(F)(F)F)nc2c(Cl)cc3c(c21)OC(F)(F)C(F)(F)O3)C(=O)OC
1

Another molecule to look at: CCOC(=O)N(Cn1c(C(F)(F)F)nc2c(Br)cc3c(c21)OC(F)(F)C(F)(F)O3)C(C)C
2

Another molecule to look at: CCCCN(Cn1c(C(F)(F)F)nc2c(Br)cc3c(c21)OC(F)(F)C(F)(F)O3)C(=O)OCC
2

Another molecule to look at: CCOC(=O)N(Cn1c(C(F)(F)F)nc2c(Cl)cc3c(c21)OC(F)(F)C(F)(F)O3)C(C)C
1

Another molecule to look at: CCN(Cn1c(C(F)(F)F)nc2c(Br)cc3c(c21)OC(F)(F)C(F)(F)O3)C(=O)OC
2

Another molecule to look at: CCOC(=O)N(Cn1c(C(F)(F)F)nc2c(Cl)cc3c(c21)OC(F)(F)C(F)(F)O3)C1CCCCC1
2

Another molecule to look at: COC(=O)N(Cn1c(C(F)(F)F)nc2c(Cl)cc3c(c21)OC(F)(F)C(F)(F)O3)c1ccccc1C
2
